# Test system: castrated male Sprague Dawley rats
# protocol_description: Ventral Prostate and Seminal Vesicle Weight In Vivo Assay; also: key: active: the non weight adjusted prostate weight was ≦40 mg or the % Inhibition prostate weight, body weight adjusted was ≧40%@2 mg/day dosage; inactive: did not meet the specified criteria defined above
# condition_details: inhibition of testosterone-enhanced prostate weight; immature castrated rats, once daily for five days, usually orally 40 mg/kg, with testosterone propionate 2 mg/kg s.c.
parameter: Activity

compound="Cn1c(C(C)(O)C(F)(F)F)nc2cc(Cl)c(Cl)cc21 (centres unmarked) [Compound 9]" recorded_value=active
compound="O=Cc1ccc(Cn2c(CC(F)(F)F)nc3cc(Cl)c(Cl)cc32)cc1 [Compound 153]" recorded_value=inactive
compound="N#Cc1ccccc1Cn1c(CC(F)(F)F)nc2cc(Cl)c(Cl)cc21 [Compound 110]" recorded_value=active
compound="O=C(c1nc2cc(Cl)c(Cl)cc2[nH]1)C(F)(F)F [Compound 114]" recorded_value=active
compound="CCOCC(C)(O)c1nc2cc(Cl)c(Cl)cc2n1C (centres unmarked) [Compound 10]" recorded_value=inactive
compound="CCSCC(C)(O)c1nc2cc(Cl)c(Cl)cc2n1CC (centres unmarked) [Compound 31]" recorded_value=active
compound="FC(F)(F)Cc1nc2cc(Cl)c(Cl)cc2n1Cc1cccnc1 [Compound 99]" recorded_value=active
compound="COc1ccc(C(=O)Cn2c(CC(F)(F)F)nc3cc(Cl)c(Cl)cc32)c(OC)c1 [Compound 77]" recorded_value=inactive
compound="CC/C(Cn1c(CC(F)(F)F)nc2cc(Cl)c(Cl)cc21)=N/O [Compound 144]" recorded_value=active
compound="FC(F)(F)Cc1nc2cc(Cl)c(Cl)cc2n1CCOc1ccc(Cl)cc1 [Compound 124]" recorded_value=active
compound="Cn1c(CC(C)(O)C(F)(F)F)nc2cc(Cl)c(Cl)cc21 (centres unmarked) [Compound 33]" recorded_value=active
compound="FC(c1nc2cc(Cl)c(Cl)cc2[nH]1)C(F)(F)F (centres unmarked) [Compound 152]" recorded_value=active
compound="COC(c1nc2cc(Cl)c(Cl)cc2n1C)C(F)(F)F (centres unmarked) [Compound 61]" recorded_value=active
compound="N#Cc1cc2nc(C(O)C(F)(F)F)[nH]c2cc1C(F)(F)F (centres unmarked) [Compound 135]" recorded_value=inactive
compound="CCCCn1c(C(C)(O)C(F)(F)F)nc2cc(Cl)c(Cl)cc21 (centres unmarked) [Compound 15]" recorded_value=active
compound="O=[N+]([O-])c1cccc(Cn2c(CC(F)(F)F)nc3cc(Cl)c(Cl)cc32)c1 [Compound 139]" recorded_value=active
compound="Cc1cc2nc(C(O)C(F)(F)F)[nH]c2cc1C (centres unmarked) [Compound 111]" recorded_value=inactive
compound="COc1cccc(Cn2c(CC(F)(F)F)nc3cc(Cl)c(Cl)cc32)c1 [Compound 129]" recorded_value=inactive
compound="Fc1c(F)c(F)c(Cn2c(CC(F)(F)F)nc3cc(Cl)c(Cl)cc32)c(F)c1F [Compound 94]" recorded_value=inactive
compound="N#Cc1ccc(OCCn2c(CC(F)(F)F)nc3cc(Cl)c(Cl)cc32)cc1 [Compound 136]" recorded_value=active
compound="CC(=O)Nc1ccc(SCC(C)(O)c2nc3cc(Cl)c(Cl)cc3n2C)cc1 (centres unmarked) [Compound 56]" recorded_value=inactive
compound="O=C(c1nc2cc(Cl)c(F)cc2[nH]1)C(F)(F)F [Compound 159]" recorded_value=active
compound="CCC(=O)Cn1c(CC(F)(F)F)nc2cc(Cl)c(Cl)cc21 [Compound 80]" recorded_value=active
compound="CCOC(=O)c1ccc(Cn2c(CC(F)(F)F)nc3cc(Cl)c(Cl)cc32)cc1 [Compound 150]" recorded_value=active
compound="FC(F)(F)C(F)(F)c1nc2cc(Cl)c(Cl)cc2[nH]1 [Compound 154]" recorded_value=inactive
compound="Fc1ccc(OCCn2c(CC(F)(F)F)nc3cc(Cl)c(Cl)cc32)cc1 [Compound 115]" recorded_value=active
compound="OC(c1nc2cc(Cl)ccc2[nH]1)C(F)(F)F (centres unmarked) [Compound 156]" recorded_value=inactive
compound="CC(O)(CO)c1nc2cc(Cl)c(Cl)cc2[nH]1 (centres unmarked) [Compound 4]" recorded_value=active
compound="CC(O)(CC#N)c1nc2cc(Cl)c(Cl)cc2[nH]1 (centres unmarked) [Compound 7]" recorded_value=active
compound="Fc1ccc(Cn2c(CC(F)(F)F)nc3cc(Cl)c(Cl)cc32)cc1 [Compound 89]" recorded_value=active
compound="Cn1c(C(C)(O)CS(=O)(=O)Cc2ccccc2)nc2cc(Cl)c(Cl)cc21 (centres unmarked) [Compound 45]" recorded_value=inactive
compound="N#Cc1cc2nc(CC(F)(F)F)[nH]c2cc1C(F)(F)F [Compound 69]" recorded_value=inactive
compound="Cn1c(C(C)(O)CC#N)nc2cc(Cl)c(Cl)cc21 (centres unmarked) [Compound 8]" recorded_value=active
compound="N#Cc1cccc(Cn2c(CC(F)(F)F)nc3cc(Cl)c(Cl)cc32)c1 [Compound 109]" recorded_value=active
compound="COCn1c(CC(F)(F)F)nc2cc(Cl)c(Cl)cc21 [Compound 57]" recorded_value=active
compound="CS(=O)(=O)c1ccc(Cn2c(CC(F)(F)F)nc3cc(Cl)c(Cl)cc32)cc1 [Compound 142]" recorded_value=inactive
compound="OC(c1nc2cc(F)c(F)cc2[nH]1)C(F)(F)F (centres unmarked) [Compound 113]" recorded_value=inactive
compound="CCn1c(CC(C)(O)C(F)(F)F)nc2cc(Cl)c(Cl)cc21 (centres unmarked) [Compound 37]" recorded_value=active
